Reference for the values: paper PMC12416549

Entries and their measured apparent Kd (screen) follow.
Target: T1, TNFR1 (Homo sapiens, UniProt P19438)
T1 chain: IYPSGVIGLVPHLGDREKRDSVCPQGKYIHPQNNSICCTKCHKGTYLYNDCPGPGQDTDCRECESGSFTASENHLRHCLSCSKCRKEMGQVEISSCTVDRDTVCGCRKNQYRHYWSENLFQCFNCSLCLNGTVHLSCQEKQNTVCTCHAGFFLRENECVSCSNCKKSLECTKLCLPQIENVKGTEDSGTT
Assay: yeast display SC50

binder: K8A (designed binder) SMEEEVEAAAKEYEKKKKEAIEKHLEKLKAKDKEAAERFLKELEEAAKEYAKDEAKTMSEEEAKRRAKKYKEKVLLSELSEEEQKEIKEAEEKLVRTILKYVEEAAK
apparent Kd (screen): 0.593 nM

binder: K100G (designed binder) SMEEEVEKAAKEYEKKKKEAIEKHLEKLKAKDKEAAERFLKELEEAAKEYAKDEAKTMSEEEAKRRAKKYKEKVLLSELSEEEQKEIKEAEEKLVRTILGYVEEAAK
apparent Kd (screen): 0.277 nM

binder: E89F (designed binder) SMEEEVEKAAKEYEKKKKEAIEKHLEKLKAKDKEAAERFLKELEEAAKEYAKDEAKTMSEEEAKRRAKKYKEKVLLSELSEEEQKEIKFAEEKLVRTILKYVEEAAK
apparent Kd (screen): 1.86 nM

binder: Q84P (designed binder) SMEEEVEKAAKEYEKKKKEAIEKHLEKLKAKDKEAAERFLKELEEAAKEYAKDEAKTMSEEEAKRRAKKYKEKVLLSELSEEEPKEIKEAEEKLVRTILKYVEEAAK
apparent Kd (screen): 22.2 nM

binder: A90E (designed binder) SMEEEVEKAAKEYEKKKKEAIEKHLEKLKAKDKEAAERFLKELEEAAKEYAKDEAKTMSEEEAKRRAKKYKEKVLLSELSEEEQKEIKEEEEKLVRTILKYVEEAAK
apparent Kd (screen): 0.49 nM

binder: E86F (designed binder) SMEEEVEKAAKEYEKKKKEAIEKHLEKLKAKDKEAAERFLKELEEAAKEYAKDEAKTMSEEEAKRRAKKYKEKVLLSELSEEEQKFIKEAEEKLVRTILKYVEEAAK
apparent Kd (screen): 1.86 nM

binder: E104F (designed binder) SMEEEVEKAAKEYEKKKKEAIEKHLEKLKAKDKEAAERFLKELEEAAKEYAKDEAKTMSEEEAKRRAKKYKEKVLLSELSEEEQKEIKEAEEKLVRTILKYVEFAAK
apparent Kd (screen): 0.593 nM

binder: E62W (designed binder) SMEEEVEKAAKEYEKKKKEAIEKHLEKLKAKDKEAAERFLKELEEAAKEYAKDEAKTMSEEWAKRRAKKYKEKVLLSELSEEEQKEIKEAEEKLVRTILKYVEEAAK
apparent Kd (screen): 0.956 nM
